The reader will find reported GI50 values listed item by item below.
- Test system: SF-295
- experimental_protocol: NCI tumour cell line growth inhibition, 48 h
Calls of active or inactive are those of the source. Rule as the data show it: active = GI50 up to about 1.1 µM and inactive = higher.

compound	GI50
COC1=C(OC)C(O)(c2ccccc2)C1=O (stereo not given)	> 100 µM (inactive)
COc1cccc(-n2nnc3c(N)nc(N)nc32)c1	> 100 µM (inactive)
COC1=CC2(C=CC1=O)CCNC1=C2C(=O)c2nc[nH]c2C1=O (stereo not given)	> 100 µM (inactive)
CC[C@H]1C=CCC[C@@]2(C[C@@H]3CC[C@@H]4[C@H](C(=O)OCCCCCCCCCCCCCCCC(=O)N(CCCNC(C)=O)C[C@H](CCNC(C)=O)OC(C)=O)[C@]5(CCC[C@@H](C)O5)NC(=[N+]34)N2)O1	0.391 µM (active)
N=C(N)NCCCC(Nc1c2ccccc2[n+]([O-])c2ccccc12)C(=O)O (stereo not given)	> 100 µM (inactive)
COc1cccc(CCn2c(N)c(-c3ccccc3)c3ccc([N+](=O)[O-])cc3c2=O)c1	3.78 µM (inactive)
O=S(=O)(NNc1ccccc1)c1ccccc1	0.646 µM (active)
Cc1ccc(S(=O)(=O)N/N=C(\c2nc3ccc(Cl)cc3[nH]c2=O)C(O)c2ccco2)cc1 (stereo not given)	> 100 µM (inactive)
ClC1=NN=C(c2c[nH]c3ccccc23)CC1NCc1ccccc1 (stereo not given)	> 100 µM (inactive)
COC(=O)N/N=C/c1oc(-c2cccc([N+](=O)[O-])c2)c(-c2cccc([N+](=O)[O-])c2)c1[N+](=O)[O-]	> 100 µM (inactive)

Entry source: ChEMBL document CHEMBL1201862
